Values from ChEMBL document CHEMBL1275361

# assayed-target: Serine/threonine-protein kinase Chk1 (Homo sapiens)
# Sequence (O14757 whole entry): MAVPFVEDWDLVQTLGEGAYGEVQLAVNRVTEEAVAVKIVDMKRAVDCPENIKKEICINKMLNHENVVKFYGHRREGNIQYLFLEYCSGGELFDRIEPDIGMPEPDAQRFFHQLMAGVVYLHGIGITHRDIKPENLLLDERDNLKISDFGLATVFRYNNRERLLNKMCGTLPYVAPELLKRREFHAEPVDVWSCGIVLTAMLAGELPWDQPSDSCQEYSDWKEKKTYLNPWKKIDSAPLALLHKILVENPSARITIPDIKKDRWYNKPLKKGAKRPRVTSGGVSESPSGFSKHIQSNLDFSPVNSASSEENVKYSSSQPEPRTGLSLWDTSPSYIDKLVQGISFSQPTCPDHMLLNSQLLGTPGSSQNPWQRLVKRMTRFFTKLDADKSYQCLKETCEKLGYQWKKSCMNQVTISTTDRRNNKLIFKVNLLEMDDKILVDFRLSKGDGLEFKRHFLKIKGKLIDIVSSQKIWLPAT
# procedure-text: Inhibition of human recombinant Chk1
Give pIC50 for every item shown.
Worth noting: pIC50 values are minus log10 of concentrations stated in mol/L.

Query: Value lookup for pIC50; key = "NCCCNC(=O)c1cccc(CNC(=O)c2cc3c(c4c2[nH]c2ccc(O)cc24)C(=O)NC3=O)c1"
Result: 7.34

Query: Value lookup for pIC50; key = "NCCNC(=O)c1cccc(CNC(=O)c2cc3c(c4c2[nH]c2ccccc24)C(=O)NC3=O)c1"
Result: 6.47

Query: Value lookup for pIC50; key = "N=C(N)NCCNC(=O)c1cccc(CNC(=O)c2cc3c(c4c2[nH]c2ccc(O)cc24)C(=O)NC3=O)c1"
Result: 8.55

Query: Value lookup for pIC50; key = "N=C(N)NCCCNC(=O)c1cccc(CNC(=O)c2cc3c(c4c2[nH]c2ccccc24)C(=O)NC3=O)c1"
Result: 6.63
